The origin of these recorded values is PubChem BioAssay (NCI).

TGI: recorded values
- Test system: HL-60(TB) leukemia
- assay.text: NCI tumour cell line growth inhibition, 48 h
endpoint.name: TGI (µM)

                                   compound  endpoint_name  unit_of_measure  qualifier_symbol  number
0  C[C@H](c1ccc(Cl)cc1[N+](=O)[O-])N1C(=O)c2cc(I)ccc2N=C(OCCCN2CCN(C)CC2)[C@@H]1c1ccc(Cl)cc1            TGI               µM                 =    4.41
1              COc1ccc(C#Cn2nnc3ccccc32)cc1            TGI               µM                 =    60.6
2  C#C[C@]1(O)CC[C@H]2[C@@H]3CC=C4c5sc(Nc6cc(F)ccc6F)nc5CC[C@]4(C)[C@H]3CC[C@@]21C            TGI               µM                 =    7.96
3  CCOc1ccc2c(-c3ccnc(Nc4cc(OC)cc(C(F)(F)F)c4)n3)cnn2n1            TGI               µM                 >      25
4  N#Cc1c(-c2ccc(Cl)cc2)cc(-c2ccc(Nc3ccnc4cc(Cl)ccc34)cc2)[nH]c1=O            TGI               µM                 >     100
5  C=C(C)[C@@H]1CCC=C2CC[C@]3(C)[C@H](CC[C@@H]4[C@@]5(C)CCCNC(C)(C)[C@@H]5CC[C@]43C)[C@H]21            TGI               µM                 =    3.57
6      CN(C)c1ccc(Nc2c3ccccc3nc3ccccc23)cc1            TGI               µM                 =    3.61
7  Cc1ccc(S(=O)(=O)NC(=O)NC(Cc2ccc(O)cc2)C(=O)O)cc1 (stereo not given)            TGI               µM                 >     100
8  NC(CCCC(N)P(=O)(O)O)C(=O)O (stereo not given)            TGI               µM                 >     100
9  COC(=O)[C@@H]1CS(=O)(=O)C(C(C)C)N1C(C)=O (stereo not given in full)            TGI               µM                 =    32.1

====

- Tested on: MCF7 breast
- assay.text: NCI tumour cell line growth inhibition, 48 h; in the data active means GI50 below about 0.43 µM; inactive means the rest
Labels: active, inactive

In [3]: df
Out[3]:
                                    compound  tested_target  assigned_category
 0  Cc1ccc(S(=O)(=O)Oc2ccc3c4c(c(=O)oc3c2)CCCCCC4)cc1    MCF7 breast           inactive
 1  C#C[C@]1(O)CC[C@H]2[C@@H]3CC=C4c5sc(Nc6cc(F)ccc6F)nc5CC[C@]4(C)[C@H]3CC[C@@]21C    MCF7 breast           inactive
 2  C=CC(=O)N1CCC(c2ccc(C(N)=O)c(-c3ccc(Oc4ccccc4)cc3)n2)CC1    MCF7 breast           inactive
 3  c1ccc(-c2nn3c(c2-c2ccnc4cc(OCCN5CCOCC5)ccc24)CCC3)nc1    MCF7 breast           inactive
 4                   CCCCNNC(=O)c1ccc(Br)cc1    MCF7 breast           inactive
 5            OCCCCC#Cc1ccccc1C#Cc1ccc(O)cc1    MCF7 breast           inactive
 6  O=C(NCCN1CCOCC1)OCc1nc2nc(Cl)nc(N3CCOCC3)c2[nH]1    MCF7 breast           inactive
 7  CCCCC(SC(=S)N1CCCC1)C(=O)Nc1nc(CC(=O)OCC)cs1 (configuration not stated)    MCF7 breast           inactive
 8  O=C1CCc2c(sc3[nH]c(=S)n(-c4cc(C(F)(F)F)cc(C(F)(F)F)c4)c(=O)c23)C1    MCF7 breast           inactive
 9  Fc1ccc(-c2ncn(C3CCNCC3)c2-c2ccnc(Oc3ccc4c(c3)OCO4)n2)cc1    MCF7 breast           inactive
10  O=C(CCN1CCCC1)Nc1ccc2c(NCc3ccccc3)c3ccccc3nc2c1    MCF7 breast             active
11       Cc1ccc(/C=C(\C#N)c2cc3ccccc3n2C)cc1    MCF7 breast             active
12  CC1=CC2C(C(O)CC3(C)C2CC(C)C32OCOC23COCO3)C2(C)C/C(=C/O)C(=O)C=C12 (configuration not stated)    MCF7 breast           inactive
13      CN(C)c1ccc(Nc2c3ccccc3nc3ccccc23)cc1    MCF7 breast           inactive
14  CN1CCN(Cc2c[nH]c3c2C(=O)c2c(c(O)c4ccccc4c2O)C3=O)CC1    MCF7 breast           inactive
15  COc1c(C(C)=O)c(OCCCCOc2c(C(C)=O)c(OC)c3ccoc3c2OC)c(OC)c2occc12    MCF7 breast           inactive
16  COc1cc(-c2nc3ccccc3s2)ccc1OCCCCOc1cc2c(cc1OC)C(=O)N1CCC[C@H]1C=N2    MCF7 breast           inactive

====

- Tested on: BT-549 breast
- assay.text: NCI tumour cell line growth inhibition, 48 h
endpoint.name: TGI (µM)

>>> print(df.to_string())
                           structure_smiles  endpoint_name  qualifier_symbol  number
0  O=C(CCN1CCCC1)Nc1ccc2c(NCc3ccccc3)c3ccccc3nc2c1            TGI                 =    3.04
1  CCOc1ccc2c(-c3ccnc(Nc4cc(OC)cc(C(F)(F)F)c4)n3)cnn2n1            TGI                 >      25
2      CN(C)c1ccc(Nc2c3ccccc3nc3ccccc23)cc1            TGI                 =    8.19
3  CCC(=O)N1C/C(=C/c2ccc(Cl)cc2)C(=O)/C(=C/c2ccc(Cl)cc2)C1            TGI                 =    1.52
4  COc1ccc(-c2cc(=O)n(-c3nc4ccccc4[nH]3)[nH]2)cc1OC            TGI                 >     100
5  CC(=O)O[C@H]1CC[C@@]2(C)C(=CC[C@@H]3[C@@H]2CC[C@]2(C)C(=N/O)/C(=C\c4ccccc4)C[C@@H]32)C1            TGI                 >     100
6       O=[N+]([O-])c1cc[n+]([O-])c2ccccc12            TGI                 =   0.728

====

- Tested on: HOP-62 NSCLC
- assay.text: NCI tumour cell line growth inhibition, 48 h
TGI: recorded values
endpoint.name: TGI

>>> print(df.to_string())
                                   compound  endpoint_name     result
0  COC(=O)CCC(NC(=S)N/N=C(\C)c1ccc[nH]1)C(=O)OC (stereo not given)            TGI   > 100 µM
1  COc1cc2cc(C(=O)N3CC(COS(C)(=O)=O)c4ccc(NC(=O)OCc5ccccc5)cc43)[nH]c2c(OC)c1OC (stereo not given)            TGI   > 100 µM
2  N#Cc1c(-c2ccc(Cl)cc2)cc(-c2ccc(Nc3ccnc4cc(Cl)ccc34)cc2)[nH]c1=O            TGI  > 62.8 µM
3  Fc1ccc(-c2ncn(C3CCNCC3)c2-c2ccnc(Oc3ccc4c(c3)OCO4)n2)cc1            TGI    > 25 µM
4                   CCCCNNC(=O)c1ccc(Br)cc1            TGI  > 34.2 µM

====

- System: RXF 393 renal
- assay.text: NCI tumour cell line growth inhibition, 48 h
endpoint.name: TGI

In [3]: df
Out[3]:
                                   molecule    result
0  C/C(CC(=O)NCCc1ccccc1)=N\NS(=O)(=O)c1ccc(C)cc1  > 100 µM
1  ClC(Cl)(Cl)C1CCOC1n1nnc2ccccc21 (stereo not drawn)  > 100 µM
2  N#CC(CCN1CCC(Nc2ccccc2)(c2nnnn2C2CCCCC2)CC1)(c1ccccc1)c1ccccc1  > 100 µM

====

- Tested on: HS 578T breast
- assay.text: NCI tumour cell line growth inhibition, 48 h; in the data active = GI50 below about 0.43 µM; inactive = the rest
Labels: 1 = active, 0 = inactive

In [3]: df
Out[3]:
                           structure_smiles   tested_target  assigned_category
0  O=C1CCc2c(sc3[nH]c(=S)n(-c4cc(C(F)(F)F)cc(C(F)(F)F)c4)c(=O)c23)C1  HS 578T breast                  1
1  COc1cc2c3c(n(CCCN)c(=O)c2cc1OC)-c1ccc([N+](=O)[O-])cc1C3=O  HS 578T breast                  0
2  O=C(NCCN1CCOCC1)OCc1nc2nc(Cl)nc(N3CCOCC3)c2[nH]1  HS 578T breast                  0
3  O=C(Oc1cccc(Cl)c1)c1ccccc1Nc1ccnc(C(F)(F)F)c1  HS 578T breast                  0
